TGI values by entry
Tested on: SW-620 colon
EXPERIMENT DESCRIPTION: NCI tumour cell line growth inhibition, 48 h

{"COMPOUND": "CC(=O)OCC1OC(n2c(=O)n(-c3ccccc3)c(=O)c3cc(Br)cc(Br)c32)C(OC(C)=O)C(OC(C)=O)C1OC(C)=O (stereo not given)", "VALUE PREFIX": ">", "TGI, µM": 100}
{"COMPOUND": "CC[C@H](C)[C@H](NC(=O)Nc1ccccc1)C(=O)N(C)[C@H](C[C@@H](OC(C)=O)c1nc(C(=O)N[C@@H](Cc2ccccc2)C[C@H](C)C(=O)OC)cs1)C(C)C", "VALUE PREFIX": ">", "TGI, µM": 100}
{"COMPOUND": "CN(C)CCCNc1ccnc2cc([N+](=O)[O-])ccc12", "VALUE PREFIX": "=", "TGI, µM": 30}
{"COMPOUND": "O=C1c2ccccc2C(=O)c2c1ccc(C(=O)O)c2-c1ccc2ccccc2c1", "VALUE PREFIX": "=", "TGI, µM": 89.5}
{"COMPOUND": "COc1ccc2c(c1)CCCN1Cc3cc(OC)c(OC)cc3CC21 (stereo not given)", "VALUE PREFIX": ">", "TGI, µM": 100}

---

Test system: HCT-15 colon
EXPERIMENT DESCRIPTION: NCI tumour cell line growth inhibition, 48 h; in the data active means GI50 below about 0.43 µM; inactive means the rest
Outcome codes: y (active), n (inactive)

{"COMPOUND": "Cc1ncc(C(=O)Nc2ccc(CN3CCN(C)CC3)c(C(F)(F)F)c2)cc1C#Cc1cnc(N)c2ncccc12", "CLASS NAME": "y"}
{"COMPOUND": "Nc1c(C(=O)c2cccc(C#CCN3CCOCC3)c2)cnn1-c1ccc(F)cc1", "CLASS NAME": "n"}
{"COMPOUND": "C#C[C@@]1(O)[C@@H](CO)O[C@@H](n2ccc3c(N)ncnc32)[C@@H]1O", "CLASS NAME": "n"}
{"COMPOUND": "Nc1ccn(C2CC(O)C(CO)O2)c(=O)n1 (stereo not given)", "CLASS NAME": "n"}
{"COMPOUND": "N#Cc1cccc(/C=C(/C(=O)c2ccccc2)c2ccccc2)c1", "CLASS NAME": "n"}
{"COMPOUND": "CCC[CH2][Ge]([CH2]CCC)([CH2]CCC)[O]C(=O)C(OC)c1ccccc1 (stereo not given)", "CLASS NAME": "n"}
{"COMPOUND": "O=C(O)c1cc(-c2ccc(-c3ccc(-c4cc(C(=O)O)c5cc(Cl)ccc5n4)cc3)cc2)nc2ccc(Cl)cc12", "CLASS NAME": "n"}
{"COMPOUND": "Cc1cc2c3ccccc3ccc2[n+]2ccccc12", "CLASS NAME": "n"}
{"COMPOUND": "Nc1nc(N)c2c(ccc3nccc32)[nH]1", "CLASS NAME": "n"}
{"COMPOUND": "COc1cc2ccnc3c2c(c1OC)-c1ccc(=O)ccc1-3", "CLASS NAME": "n"}

---

// TGI lookup, one value per entry
System: SW-620 colon
EXPERIMENT DESCRIPTION: NCI tumour cell line growth inhibition, 48 h
MEASURED METRIC: TGI

{"MOLECULE": "O=C(O)C1=NNC(C(=O)O)=NN1", "MEASURED METRIC": "TGI", "OBS VALUE": "> 100 µM"}
{"MOLECULE": "CCC[CH2][Sn]([CH2]CCC)([O]C(=O)c1cc(OC)c(OC)cc1OC)[O]C(=O)c1cc(OC)c(OC)cc1OC", "MEASURED METRIC": "TGI", "OBS VALUE": "2.83 µM"}
{"MOLECULE": "ClC1=NC(Cl)C(Cl)=N/C1=N\\c1ncn[nH]1 (stereo not given)", "MEASURED METRIC": "TGI", "OBS VALUE": "4.3 µM"}
{"MOLECULE": "c1ccc2sc(SCN(C3CCCCC3)C3CCCCC3)nc2c1", "MEASURED METRIC": "TGI", "OBS VALUE": "> 100 µM"}
{"MOLECULE": "COCOCC1CCCN1CN1CCC[C@H]1COCOC (stereo not given in full)", "MEASURED METRIC": "TGI", "OBS VALUE": "> 100 µM"}
{"MOLECULE": "O=C(O)Cc1cccc2c1OC(c1ccccc1)C(C(=O)c1ccccc1)C2=O (stereo not given)", "MEASURED METRIC": "TGI", "OBS VALUE": "> 100 µM"}
{"MOLECULE": "O=C(O)c1nc2ccccc2nc1Nc1ccc(F)cc1", "MEASURED METRIC": "TGI", "OBS VALUE": "> 100 µM"}
{"MOLECULE": "C[C@H]1[C@H](C)CC[C@]2(C(=O)O)CC[C@]3(C)C(=CC[C@@H]4[C@@]5(C)CC[C@H](OC(=O)/C=C/c6ccc(O)cc6)C(C)(C)[C@@H]5CC[C@]43C)[C@H]12", "MEASURED METRIC": "TGI", "OBS VALUE": "32.4 µM"}
{"MOLECULE": "CC(=O)C1C(=O)C(=O)N(c2ccccc2N2C(=O)C(=O)C(C(C)=O)C2=O)C1=O (stereo not given)", "MEASURED METRIC": "TGI", "OBS VALUE": "> 100 µM"}
{"MOLECULE": "Cc1cccc(NC(=O)CCl)c1", "MEASURED METRIC": "TGI", "OBS VALUE": "> 10 µM"}
